- System: HCT-116 colon
- protocolSummary: NCI-60 one-dose screen, 48 h
- cond: 10 µM unless noted
This is part of a sample that, as a whole, favours compounds with a hit. Of some 83,000 tested, about 20% had one in any assay. Active and inactive are the calls of the source. How the source made its calls: active means growth percent below 10; inactive means the rest.
Hi! Could you answer with just one of these? 1 = active, 0 = inactive

- compound: "CCN(CC)CCn1c2ccc(OC)cc2c2sc3cc(O)ccc3c(=O)c21"
  classLabel: 0

Here is the next item to consider.
Query :: Recorded test call requested for N#Cc1c(-c2ccccc2)nc2c(c(-c3ccccc3)nn2-c2ccccc2)c1-c1ccc(N2CCCCC2)cc1
Result :: 0

---

- Tested on: SNB-75 CNS
- protocolSummary: NCI-60 one-dose screen, 48 h (100 = growth as untreated, 0 = no growth, -100 = all killed)
- cond: 10 µM unless noted
The panel holds about 83,000 compounds, 20% with a hit somewhere; the sample as a whole holds those more often.
measurementLabel: growth (%)
One number for each entry, in %.

- molecule: "O=[N+]([O-])c1c(O)c(Cl)cc(Cl)c1Cl"
  testTarget: "SNB-75 CNS"
  assayResult: 98.8
- molecule: "Cc1ccc(Cc2cnc(NC(=O)/C=C/c3ccc(C)o3)s2)cc1"
  testTarget: "SNB-75 CNS"
  assayResult: 26.7
- molecule: "CC(C)(C)c1ccc(S(=O)(=O)Oc2ccc(-c3sc4cc(OS(=O)(=O)c5ccc(C(C)(C)C)cc5)ccc4c3C(=O)c3ccc(OCCN4CCCCC4)cc3)cc2)cc1"
  testTarget: "SNB-75 CNS"
  assayResult: 56.6
- molecule: "c1ccc2cc(Cn3cc(CSc4nc5ccccc5s4)nn3)ccc2c1"
  testTarget: "SNB-75 CNS"
  assayResult: 101
- molecule: "COC(=O)/C=C1/SC(=NCc2ccccc2)N(CCc2c[nH]c3ccccc23)C1=O"
  testTarget: "SNB-75 CNS"
  assayResult: 104
- molecule: "CC1=C2[C@@H](CC1)[C@]1(C)O[C@@](C3CCNCC3)(C[C@H]1OC(=O)CO)[C@H]2OC(=O)/C=C/c1ccccc1"
  testTarget: "SNB-75 CNS"
  assayResult: 68.9
- molecule: "COc1cc(/C=C/c2cn[nH]c2-c2ccc(C)cc2)cc(OC)c1OC"
  testTarget: "SNB-75 CNS"
  assayResult: 29.5
- molecule: "CCCCCCCCn1ccc2cc(NC(=O)CN=[N+]=[N-])ccc21"
  testTarget: "SNB-75 CNS"
  assayResult: 99.6

Please report growth for every entry that follows.
1. CCOC(=O)CC1CSC(N/N=C/c2ccc(F)c(Br)c2)=N1 (stereo not given)
2. COc1ccc(/C=C/C(c2cc(OC)c(OC)c(OC)c2)n2cncn2)cc1O (stereo not given)

Result ::
109
41
